Origin of the recorded values: patent US6780884B2

# System: 125I-Melatonin Binding in Membranes of Hamster Brain
# Assay text: 125I-Melatonin binding in membranes of hamster brain (competition)
# Condition details: competitor 10^-6M, relative to competitor concentration 0
Would you mind telling me the reported % bound at competitor concentration 10-6M of each entry?
Note to self: number, then unit, no commentary.

query: Return reported % bound at competitor concentration 10-6M; argument: Nc1cc(NCCc2c[nH]c3ccccc23)c([N+](=O)[O-])cc1[N+](=O)[O-] [ML-27, N-(2,4-dinitro-5-aminophenyl)tryptamine]
result: 87%

query: Form field: reported % bound at competitor concentration 10-6M of COc1ccc2[nH]cc(CCNc3ccc([N+](=O)[O-])cc3[N+](=O)[O-])c2c1 [ML-23, reference compound]
result: 87%

query: Look at this compound and give its reported % bound at competitor concentration 10-6M. Cc1ccc2[nH]cc(CCNc3cc(N)c([N+](=O)[O-])cc3[N+](=O)[O-])c2c1 [ML-31]
result: 72%

query: Data request, read-out % bound at competitor concentration 10-6M, for CC(=O)Nc1cc(NCCc2c[nH]c3ccc(C)cc23)c([N+](=O)[O-])cc1[N+](=O)[O-] [ML-29]
result: 80%

query: % bound at competitor concentration 10-6M for O=[N+]([O-])c1ccc(NCCc2c[nH]c3ccccc23)c([N+](=O)[O-])c1 [ML-25, N-(2,4-dinitrophenyl)tryptamine] ?
result: 91%

query: I am curious: what % bound at competitor concentration 10-6M value has been reported for Cc1ccc2[nH]cc(CCNc3ccc([N+](=O)[O-])cc3[N+](=O)[O-])c2c1 [ML-28, N-(2,4-dinitrophenyl)-5-methyltryptamine] ?
result: 87%

query: Fill blank: measured % bound at competitor concentration 10-6M of the compound CC(=O)Nc1cc(NCCc2c[nH]c3ccccc23)c([N+](=O)[O-])cc1[N+](=O)[O-] [ML-26, 2,4-dinitro-5-tryptylaminoacetanilide] is ____.
result: 99%

###

# System: 125I-Melatonin Binding in Membranes of Hamster Brain
# Assay text: 125I-Melatonin binding in membranes of hamster brain (competition)
# Condition details: competitor 10^-7M, relative to competitor concentration 0
Property: % bound at competitor concentration 10-7M (%)
Write the answer as a number in %, unit excluded.

query: Form field: reported % bound at competitor concentration 10-7M of COc1ccc2[nH]cc(CCNc3ccc([N+](=O)[O-])cc3[N+](=O)[O-])c2c1 [ML-23, reference compound]
result: 94

query: Could you tell me which % bound at competitor concentration 10-7M is on file for `Nc1cc(NCCc2c[nH]c3ccccc23)c([N+](=O)[O-])cc1[N+](=O)[O-]` ?
result: 92

query: Which value of % bound at competitor concentration 10-7M has been reported for `COc1ccc2[nH]cc(CCNc3cc(NC(C)=O)c([N+](=O)[O-])cc3[N+](=O)[O-])c2c1` in the records?
result: 96

query: Returns the measured % bound at competitor concentration 10-7M for the input compound. Input: `CC(=O)Nc1cc(NCCc2c[nH]c3ccc(C)cc23)c([N+](=O)[O-])cc1[N+](=O)[O-]`
result: 90

query: Reported % bound at competitor concentration 10-7M, compound `COc1ccc2[nH]cc(CCNc3cc(N)c([N+](=O)[O-])cc3[N+](=O)[O-])c2c1` : ____
result: 90

query: Any idea what its % bound at competitor concentration 10-7M is? The compound is COc1ccc2[nH]cc(CCNC(C)=O)c2c1 [Melatonin, reference compound]
result: 89

query: May I ask what % bound at competitor concentration 10-7M has been recorded for `O=[N+]([O-])c1ccc(NCCc2c[nH]c3ccccc23)c([N+](=O)[O-])c1` ?
result: 92

###

Provide the recorded 125I-melatonin bound at competitor concentration 10-7M for the entries that follow.
# System: 125I-Melatonin Binding in Membranes of Hamster Brain
# Assay text: 125I-Melatonin binding in membranes of hamster brain (competition)
# Condition details: competitor 10^-7M; 125I-melatonin 250 pM, 37° C., 60 min; radioactivity, unit not given
# Experimental: ^125I-Melatonin Binding in Membranes of Hamster Brain […] Aliquots of suspended P2 (20 ul) were incubated at 37° C. with ^125I-melatonin (250 pM) for 60 mln. in Tris-Hcl buffer in the absence or presence of 1 nM-100 μM test-substances (ML compounds and melatonin). […] The filters containing the bound ^125I-melatonin were assayed for the amount of radioactivity in a γ counter. […]
Respond numerically, and do not add a unit to the figure.

query: Fill blank: measured 125I-melatonin bound at competitor concentration 10-7M of the molecule COc1ccc2[nH]cc(CCNC(C)=O)c2c1 [Melatonin, reference compound] is ____.
result: 377

query: I'd like to know its 125I-melatonin bound at competitor concentration 10-7M. The molecule in question is Cc1ccc2[nH]cc(CCNc3ccc([N+](=O)[O-])cc3[N+](=O)[O-])c2c1 [ML-28, N-(2,4-dinitrophenyl)-5-methyltryptamine]
result: 381

query: What value of measured 125I-melatonin bound at competitor concentration 10-7M is listed for Nc1cc(NCCc2c[nH]c3ccccc23)c([N+](=O)[O-])cc1[N+](=O)[O-] [ML-27, N-(2,4-dinitro-5-aminophenyl)tryptamine] ?
result: 448

query: I am curious: what 125I-melatonin bound at competitor concentration 10-7M value has been reported for COc1ccc2[nH]cc(CCNc3cc(N)c([N+](=O)[O-])cc3[N+](=O)[O-])c2c1 [ML-32] ?
result: 408

query: Please give the measured 125I-melatonin bound at competitor concentration 10-7M for this molecule: COc1ccc2[nH]cc(CCNc3ccc([N+](=O)[O-])cc3[N+](=O)[O-])c2c1 [ML-23, reference compound]
result: 435

query: For CC(=O)Nc1cc(NCCc2c[nH]c3ccccc23)c([N+](=O)[O-])cc1[N+](=O)[O-] [ML-26, 2,4-dinitro-5-tryptylaminoacetanilide] , what is its reported 125I-melatonin bound at competitor concentration 10-7M?
result: 435

query: Bench note: what 125I-melatonin bound at competitor concentration 10-7M did COc1ccc2[nH]cc(CCNc3cc(NC(C)=O)c([N+](=O)[O-])cc3[N+](=O)[O-])c2c1 [ML-30] show?
result: 488

query: Reported 125I-melatonin bound at competitor concentration 10-7M for Cc1ccc2[nH]cc(CCNc3cc(N)c([N+](=O)[O-])cc3[N+](=O)[O-])c2c1 [ML-31] : what is it?
result: 438

query: # input molecule: O=[N+]([O-])c1ccc(NCCc2c[nH]c3ccccc23)c([N+](=O)[O-])c1 [ML-25, N-(2,4-dinitrophenyl)tryptamine] ; wanted: its 125I-melatonin bound at competitor concentration 10-7M
result: 396

query: Query: 125I-melatonin bound at competitor concentration 10-7M; subject: CC(=O)Nc1cc(NCCc2c[nH]c3ccc(C)cc23)c([N+](=O)[O-])cc1[N+](=O)[O-] [ML-29]
result: 404

###

# Tested on: 125I-Melatonin Binding in Membranes of Hamster Brain
# Assay text: 125I-Melatonin binding in membranes of hamster brain (competition)
# Condition details: competitor 10^-6M; 125I-melatonin 250 pM, 37° C., 60 min; radioactivity, unit not given
Strictly below 400 in 125I-melatonin bound at competitor concentration 10-6M: TRUE. Otherwise: FALSE.

query: 125I-melatonin bound at competitor concentration 10-6M strictly < 400 for this molecule? COc1ccc2[nH]cc(CCNC(C)=O)c2c1 [Melatonin, reference compound]
result: TRUE

query: For this molecule, is 125I-melatonin bound at competitor concentration 10-6M lower than 400? COc1ccc2[nH]cc(CCNc3cc(N)c([N+](=O)[O-])cc3[N+](=O)[O-])c2c1 [ML-32]
result: FALSE

query: is_below(125I-melatonin bound at competitor concentration 10-6M, 400) for Nc1cc(NCCc2c[nH]c3ccccc23)c([N+](=O)[O-])cc1[N+](=O)[O-] [ML-27, N-(2,4-dinitro-5-aminophenyl)tryptamine] ?
result: FALSE

query: Please let me know if Cc1ccc2[nH]cc(CCNc3ccc([N+](=O)[O-])cc3[N+](=O)[O-])c2c1 [ML-28, N-(2,4-dinitrophenyl)-5-methyltryptamine] shows 125I-melatonin bound at competitor concentration 10-6M below 400.
result: TRUE

query: Lab note: 125I-melatonin bound at competitor concentration 10-6M threshold 400. Does this molecule come in strictly under it? Cc1ccc2[nH]cc(CCNc3cc(N)c([N+](=O)[O-])cc3[N+](=O)[O-])c2c1 [ML-31]
result: TRUE

query: Criterion: 125I-melatonin bound at competitor concentration 10-6M strictly below 400. Is it met by CC(=O)Nc1cc(NCCc2c[nH]c3ccc(C)cc23)c([N+](=O)[O-])cc1[N+](=O)[O-] [ML-29] ?
result: TRUE
